Source: the supplement of paper PMC8967900

System: KOPN-8;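 further: ALL cell lines in 384-well plates, five doses spanning 10,000-fold, each plate scaled between vehicle and 100 µmol/L benzalkonium chloride controls, sDSS an adapted area-under-curve metric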
Assay info: selective drug sensitivity score (sDSS, relative to normal bone marrow) (sDSS (score)); higher = more potent and effective on the cell line relative to normal bone marrow cells
Condition description: 72 h
Measured parameter: selective drug sensitivity score
In your answer, state the number alone without any accompanying words.

Consider the reported selective drug sensitivity score for these compounds:
COc1cc(C)[nH]c(=O)c1CNC(=O)c1c(C)n([C@H](C)C2CCOCC2)c2ccccc12 [CPI-360] (top concentration 10000 nM)	0
Nc1cccc2c1CN(C1CCC(=O)NC1=O)C2=O (stereo not drawn) [Lenalidomide] (top concentration 100000 nM)	1.02

What measured selective drug sensitivity score is associated with COCCOc1cnc2ccn([C@H](C)c3nnc4c(F)cc(-c5cnn(C)c5)cn34)c(=O)c2c1 [AMG-337] (top concentration 10000 nM) on KOPN-8? 1.54
